# System: KYSE-150 esophageal carcinoma cell line
# Procedure text: In vitro cell-based assay: cellular proliferation via BrdU incorporation (ELISA)
# Design: species or system human
# Test conditions: Homo sapiens, KYSE-150, 168 hours compound incubation
pIC50: −log10 of the molar value.
Each entry below carries its recorded pIC50.
Parameter measured: pIC50

                                    compound      observed
 0  CN(c1ccc2c(c1)CCC[C@H]2CNc1cnccc1C(=O)O)c1ccc2ccoc2c1 [Example 135]        ≥ 7.00
 1  COc1ccc(F)cc1-c1ccc2c(c1)OCC[C@H]2CNc1cnccc1C(=O)O [Example 102]  6.00 to 7.00
 2  CN(c1ccc(C#N)cc1)c1ccc2c(c1)OCC[C@H]2CNc1cnccc1C(=O)O [Example 119]  6.00 to 7.00
 3  Cc1ccccc1Sc1ccc2c(c1)CCC[C@H]2CNc1cnccc1C(=O)O [Example 71]  6.00 to 7.00
 4  O=C(O)c1ccncc1NC[C@@H]1CCCc2cc(N3CCCC3)ccc21 [Example 106]  6.00 to 7.00
 5  O=C(O)c1ccncc1NC[C@@H]1CCOc2cc(-c3ccsc3)ccc21 [Example 34]  6.00 to 7.00
 6  CN(c1ccc(N2CC(F)(F)C2)cc1)c1ccc2c(c1)OCC[C@H]2CNc1cnccc1C(=O)O [Example 196]        ≥ 7.00
 7  CN(c1ccc(OCC2CC2)cc1)c1ccc2c(c1)OCC[C@H]2CNc1cnccc1C(=O)O [Example 211]        ≥ 7.00
 8  COc1ccccc1N(C)c1ccc2c(c1)CCC[C@H]2CNc1cnccc1C(=O)O [Example 172]  6.00 to 7.00
 9  COc1ccc(N(C)c2ccc3c(c2)CCC[C@H]3CNc2cnccc2C(=O)O)cn1 [Example 13]  6.00 to 7.00
10  Cc1ccc(N(C)c2ccc3c(c2)OCC[C@H]3CNc2cnccc2C(=O)O)cc1F [Example 151]        ≥ 7.00
11  Cc1sccc1-c1ccc2c(c1)OCC[C@H]2CNc1cnccc1C(=O)O [Example 37]  6.00 to 7.00
12  CN(c1ccc(CC(F)(F)F)cc1)c1ccc2c(c1)OCC[C@H]2CNc1cnccc1C(=O)O [Example 192]        ≥ 7.00
13  CN(c1ccc2c(c1)OCC[C@H]2CNc1cnccc1C(=O)O)c1ccc(F)cc1F [Example 104]  6.00 to 7.00
14  CN(c1ccc(C2CC2)cc1)c1ccc2c(c1)CCC[C@H]2CNc1cnccc1C(=O)O [Example 161]        ≥ 7.00
15  COc1cc(N(C)c2ccc3c(c2)CCC[C@H]3CNc2cnccc2C(=O)O)ccc1F [Example 114]  6.00 to 7.00
16  CN(c1cccc(C#N)c1)c1ccc2c(c1)OCC[C@H]2CNc1cnccc1C(=O)O [Example 117]  6.00 to 7.00

----------
# maps each entry to its pIC50
# Tested on: KYSE-150 esophageal carcinoma cell line
# Procedure text: In vitro cell-based assay: cellular proliferation via BrdU incorporation (ELISA)
# Parameters: species or system human
# Test conditions: Homo sapiens, KYSE-150, 168 hours compound incubation
pIC50: −log10 of the molar value.
Parameter measured: pIC50

In [3]: df
Out[3]:
                                    compound      observed
 0  COc1ccc(N(C)c2ccc3c(c2)CCC[C@H]3CNc2cnccc2C(=O)O)cc1        ≥ 7.00
 1  CN(c1ccc2c(c1)OCC[C@H]2CNc1cnccc1C(=O)O)c1ccccc1F        ≥ 7.00
 2  CCCOc1ccc(N(C)c2ccc3c(c2)OCC[C@H]3CNc2cnccc2C(=O)O)cc1        ≥ 7.00
 3  Cc1cc(F)ccc1Oc1ccc2c(c1)CCC[C@H]2CNc1cnccc1C(=O)O        ≥ 7.00
 4  O=C(O)c1ccncc1NCC1CCCc2cc(N3CCCC3=O)ccc21 (stereo not drawn)        < 5.00
 5  CN(c1ccc(N2CCOCC2)cc1)c1ccc2c(c1)CCC[C@H]2CNc1cnccc1C(=O)O        ≥ 7.00
 6  CN(c1ccc(-n2cccn2)cc1)c1ccc2c(c1)OCC[C@H]2CNc1cnccc1C(=O)O  6.00 to 7.00
 7  CCc1ccc(N(C)c2ccc3c(c2)OCC[C@H]3CNc2cnccc2C(=O)O)nc1        ≥ 7.00
 8  Cc1ccc(F)cc1-c1ccc2c(c1)OCC[C@H]2CNc1cnccc1C(=O)O        ≥ 7.00
 9  CN(c1cccc(F)c1)c1ccc2c(c1)OCC[C@H]2CNc1cnccc1C(=O)O        ≥ 7.00
10  CN(c1ccc(N2CCCC2)cc1)c1ccc2c(c1)OCC[C@H]2CNc1cnccc1C(=O)O        ≥ 7.00
11  CN(c1cccnc1)c1ccc2c(c1)CCC[C@H]2CNc1cnccc1C(=O)O  6.00 to 7.00
12  O=C(O)c1ccncc1NC[C@@H]1CCCc2cc(Oc3ccccc3Cl)ccc21  6.00 to 7.00
13  CN(c1ccc2c(c1)COC2)c1ccc2c(c1)CCC[C@H]2CNc1cnccc1C(=O)O        ≥ 7.00
14  CN(c1ccc(-n2ccnc2)cc1)c1ccc2c(c1)OCC[C@H]2CNc1cnccc1C(=O)O  5.00 to 6.00
15  Cc1cc2c(cc1C)C(CNc1cnccc1C(=O)O)CCO2 (stereo not drawn)  5.00 to 6.00
16  O=C(O)c1ccncc1NCC1CCCc2cc(Sc3ccccn3)ccc21 (stereo not drawn)  5.00 to 6.00
17  COc1cccc(N(C)c2ccc3c(c2)CCC[C@H]3CNc2cnccc2C(=O)O)c1        ≥ 7.00
18  Cc1c(F)cccc1-c1ccc2c(c1)OCC[C@H]2CNc1cnccc1C(=O)O  6.00 to 7.00
19  O=C(O)c1ccncc1NCC1CCOc2cc(Br)ccc21 (stereo not drawn)        < 5.00
20  CN(c1ccc2c(c1)OCC[C@H]2CNc1cnccc1C(=O)O)c1ccc(C2CC2)cn1        ≥ 7.00
21  CN(c1ccc(C2CCOCC2)cc1)c1ccc2c(c1)OCC[C@H]2CNc1cnccc1C(=O)O        ≥ 7.00
22  Cc1cnc(N(C)c2ccc3c(c2)CCC[C@H]3CNc2cnccc2C(=O)O)nc1  6.00 to 7.00
23  CN(c1ccc2c(c1)CCC[C@H]2CNc1cnccc1C(=O)O)c1ccccn1        ≥ 7.00
24  COc1cccc(N(C)c2ccc3c(c2)CCC[C@H]3CNc2cnccc2C(=O)O)n1        ≥ 7.00
25  CN1CC=C(c2ccc(N(C)c3ccc4c(c3)OCC[C@H]4CNc3cnccc3C(=O)O)cc2)CC1        < 5.00
26  Cc1ccccc1Sc1ccc2c(c1)OCC[C@H]2CNc1cnccc1C(=O)O  5.00 to 6.00

----------
# Test system: KYSE-150 esophageal carcinoma cell line
# Procedure text: In vitro cell-based assay: cellular proliferation via BrdU incorporation (ELISA)
# Parameters: species or system human
# Test conditions: Homo sapiens, KYSE-150, 168 hours compound incubation
Parameter measured: IC50

In [3]: df
Out[3]:
                                   compound          observed
0  CN(c1ccc2c(c1)OCC[C@H]2CNc1cnccc1C(=O)O)c1ccc2ccoc2c1    100 to 1000 nM
1  N#Cc1ccccc1-c1ccc2c(c1)OCC[C@H]2CNc1cnccc1C(=O)O  1000 to 10000 nM
2  O=C(O)c1ccncc1NC[C@@H]1CCCc2cc(S(=O)(=O)c3ccccc3)ccc21        > 10000 nM
3  CC(c1ccccc1)c1ccc2c(c1)OCC[C@H]2CNc1cnccc1C(=O)O (stereo partly drawn)          ≤ 100 nM
4  CN(c1ccc(CCO)cc1)c1ccc2c(c1)OCC[C@H]2CNc1cnccc1C(=O)O    100 to 1000 nM
5  O=C(O)c1ccncc1NC[C@@H]1CCCc2cc(Sc3ccccc3F)ccc21    100 to 1000 nM

----------
Reported IC50 for target or system UniProt:Q9H3R0, by entry.
Sequence (Q9H3R0 2-372): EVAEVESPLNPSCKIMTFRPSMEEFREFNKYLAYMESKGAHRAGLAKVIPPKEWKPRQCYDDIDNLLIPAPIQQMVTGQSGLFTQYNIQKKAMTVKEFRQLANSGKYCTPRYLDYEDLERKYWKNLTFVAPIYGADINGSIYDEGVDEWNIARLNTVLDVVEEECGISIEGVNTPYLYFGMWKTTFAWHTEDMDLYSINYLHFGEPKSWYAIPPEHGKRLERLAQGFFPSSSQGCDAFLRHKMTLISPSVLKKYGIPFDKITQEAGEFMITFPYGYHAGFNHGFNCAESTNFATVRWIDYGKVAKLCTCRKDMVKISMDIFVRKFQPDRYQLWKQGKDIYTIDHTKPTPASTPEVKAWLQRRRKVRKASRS
Parameter measured: IC50

In [3]: df
Out[3]:
                                    molecule  parameter_measured     observed
 0  Cc1ccc(Sc2ccc3c(c2)CCC[C@@H]3CNc2cnccc2C(=O)O)cc1 [Example 78]                IC50   1 to 10 µM
 1  CN(c1ccc2c(c1)CCC[C@H]2CNc1cnccc1C(=O)O)c1cnn(C)c1 [Example 159]                IC50  0.1 to 1 µM
 2  CN1CCC(c2ccc(N(C)c3ccc4c(c3)OCC[C@H]4CNc3cnccc3C(=O)O)cc2)CC1 [Example 205]                IC50     ≤ 0.1 µM
 3  CCc1ccc(N(C)c2ccc3c(c2)OCC[C@H]3CNc2cnccc2C(=O)O)cc1 [Example 154]                IC50  0.1 to 1 µM
 4  CN(c1ccc(CC(F)(F)F)cc1)c1ccc2c(c1)OCC[C@H]2CNc1cnccc1C(=O)O [Example 192]                IC50  0.1 to 1 µM
 5  CC(C)Oc1ccc(N(C)c2ccc3c(c2)OCC[C@H]3CNc2cnccc2C(=O)O)cc1 [Example 210]                IC50  0.1 to 1 µM
 6  O=C(O)c1ccncc1NCC1CCCc2c1ccc1c2OCC1 (stereo not shown) [Example 92]                IC50  0.1 to 1 µM
 7  Cc1cccc(Oc2ccc3c(c2)CCCC3CNc2cnccc2C(=O)O)n1 (stereo not shown) [Example 56]                IC50  0.1 to 1 µM
 8  Cc1cccc(-c2ccc3c(c2)OCC[C@@H]3CNc2cnccc2C(=O)O)c1 [Example 29]                IC50   1 to 10 µM
 9  Cc1ccc(N(C)c2ccc3c(c2)OCC[C@H]3CNc2cnccc2C(=O)O)nc1 [Example 145]                IC50     ≤ 0.1 µM
10  C#Cc1ccc(N(C)c2ccc3c(c2)OCC[C@H]3CNc2cnccc2C(=O)O)cc1 [Example 126]                IC50  0.1 to 1 µM
11  CN(c1ccc(CO)cc1)c1ccc2c(c1)CCC[C@H]2CNc1cnccc1C(=O)O [Example 158]                IC50  0.1 to 1 µM
12  CCN(c1ccccc1)c1ccc2c(c1)CCC[C@H]2CNc1cnccc1C(=O)O [Example 10]                IC50  0.1 to 1 µM
